Assay: viability of PTEN-deleted HCT116 cells – cell-based, HCT116 PTEN knockout, dose response (AID 1047);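 note: HCT116 colon tumor cells with PTEN knocked out; cells exposed to compound for 60 hours before readout; potency for loss of cell viability measured by luminescence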
Format: functional
The source made the active and inactive calls. The rule behind the calls is not given here.
property: EC50

Examples from the recorded data:
{"columns": ["substance_smiles", "assay_result"],
 "data": [
  ["Cn1cccc1/C=C1\\C(=O)NC(=O)N(CCC2=CCCCC2)C1=O", "67.2 µM (active)"],
  ["Cc1cnn(-c2cc(N/N=C/c3ccccc3F)ncn2)c1", "12.7 µM (active)"],
  ["CC1=C/C(=N\\OS(=O)(=O)c2ccccc2)C(C)=CC1=O", "14.5 µM (active)"]
]}

Read off the recorded EC50 for COc1ccc(Cn2c(SCc3ccccc3C)nc3cc(OC)c(OC)cc3c2=N)cc1
4.85 µM (active)
